The compounds listed here are annotated with their growth.
Tested on: HOP-62 NSCLC
ASSAY EXPLANATION: NCI-60 one-dose screen, 48 h (100 = growth as untreated, 0 = no growth, -100 = all killed)
ASSAY CONTEXT: 10 µM unless noted
The panel holds about 83,000 compounds, 20% with a hit somewhere; the sample as a whole holds those more often.
OBSERVABLE: growth (%)

> print(dat)
                            smiles.notation  reported.measurement
1  OC1CCN(CCCOc2c3ccccc3nc3c2oc2ccc(Cl)cc23)CC1                    27
2  Nc1c(C(=O)Nc2ccc(C(F)(F)F)cc2)sc2nc(-c3cnccn3)cc(-c3cccs3)c12                  68.1
3  NC(=O)c1cc(-c2ccc3ncnc(N4CCc5cc(F)c(Cl)cc54)c3c2)cnc1N                  27.9
4  CCN1CCN(S(=O)(=O)c2oc(-c3ccc(Cl)cc3)nc2C#N)CC1                   108
5   Cc1ccc(/C=C/c2nn3c(-c4ccco4)nnc3s2)cc1C                   100

====

System: SW-620 colon
ASSAY EXPLANATION: NCI-60 one-dose screen, 48 h
ASSAY CONTEXT: 10 µM unless noted
About 83,000 compounds went through this panel and 20% of them were active in at least one assay; those are over-represented in the sample as a whole. The source made the active and inactive calls. The calls were made as follows: active = growth percent below 10; inactive = the rest.
Possible outcomes: true for active, false for inactive

> print(dat)
                                    molecule  category.label
 1  Fc1ccc(-c2nc(C(Cl)Cl)nc3cc(-c4ccccc4)nn23)cc1            true
 2  COc1cc(-c2nc3ccc(-c4nnc(SCC(=O)Nc5ccc(C(C)=O)cc5)o4)cc3[nH]2)cc(OC)c1OC           false
 3  COc1cc2nc(-c3ccc(C)cc3)cc(OCCCNCC3CCCO3)c2cc1OC (stereo unspecified)           false
 4  CC(=O)Oc1ccccc1C(=O)Nc1ccc(C(=O)/C=C/c2cccs2)cc1           false
 5       CC1=C(C)C(=O)C(Nc2ccccc2)=C(Cl)C1=O           false
 6  COc1cc(/C=C/C(=O)c2ccc(C(F)(F)F)cc2)ccc1Oc1nc(NCCO)nc(N2CCOCC2)n1            true
 7  CCN1C(=S)N(c2ccccc2)C2NC(=O)N(/N=C/C=C/c3ccccc3OC)C21 (stereo unspecified)           false
 8    COc1ccc(/C=N/Nc2ccnc3cc(Cl)ccc23)cc1Cl            true
 9  O=C1NC(=C(Cl)Cl)/C(=N/S(=O)(=O)N2CCCCC2CC2(C(F)(F)F)N=N2)N1 (stereo unspecified)            true
10  C/C(=N/NC(N)=S)c1ccc(Nc2nc(SCC(C)C)nc(-c3ccc(F)cc3)c2C#N)cc1            true
11  Clc1ccc2oc3c(OCCCn4ccnc4)c4ccccc4nc3c2c1           false
12            O=C(CN1CCOCC1)NNc1ncnc2ccccc12            true
13  CN(C)CCCOc1c2ccc(Cl)cc2nc2c1oc1ccc(Cl)cc12            true
14   C=CCSc1ccc2c(c1)C(N1CCNCC1)=Nc1ccccc1O2           false
15  COc1cc(-c2ccc3ncnc(NC(C)c4ccccc4)c3c2)cnc1OC (stereo unspecified)           false
16  C#Cc1nc(C2=C(C)C(O)/C(=N/O)C2)cs1 (stereo unspecified)           false
17             O=[N+]([O-])c1ccc(O)c2ncccc12           false
18  Cc1ccc2c(n1)C(=O)C(Cl)=C(Nc1cccc(C(C)C)c1)C2=O           false
19  Cc1c(Nc2nnc(SCC(=O)Nc3sc4c(c3C#N)CCCC4)s2)c(=O)n(-c2ccccc2)n1C           false
20      O=C(Oc1ccc2ccc(=O)oc2c1)c1ccc(Cl)cc1           false
21  Nc1cc(-c2c[nH]c3ccc(F)cc23)nc2cc(-c3c[nH]c4ccc(F)cc34)nn12            true
22           N#Cc1nc(-c2ccccc2)oc1S(N)(=O)=O           false
23  CS(=O)(=O)c1ccc(-c2nc3ccccn3c2/C=N/Nc2nc(-c3ccc(Br)cc3)cs2)cc1           false
24  O=C1Nc2ccc(Cl)cc2/C1=C/c1ccc(OCC(=O)c2ccc(Br)cc2)cc1           false
25  CN1CCc2c(sc3ncnc(N/N=C/c4ccc(Cl)c(Cl)c4)c23)C1            true
26  NS(=O)(=O)c1cccc(Nc2nc(SCC(=O)c3ccc([N+](=O)[O-])cc3)nc3ccccc23)c1           false
27  COc1ccc(COc2ccc(/C=C3/C(=O)Nc4cc(Cl)ccc43)cc2)cc1           false
28  CC(C)Sc1nc(Nc2ccc(S(N)(=O)=O)cc2)c(C#N)c(-c2ccc(F)cc2)n1           false
29   C#Cc1nc(C2=C(C)/C(=N/OCc3ccccc3)CC2)cs1           false
30  CN1C(=O)N(c2ccccc2)C2N=C(N/N=C/c3ccccc3)SC21 (stereo unspecified)           false
31  CCOC(=O)c1c(Nc2ccccc2)nn2c(N)c(C#N)c(-c3ccc(OC)cc3)nc12           false
32     N#Cc1nc(-c2ccccc2)oc1N1CC[C@@H](CO)C1           false
33  CCCC(=O)NC(c1ccc2c(c1)OC(F)(F)O2)c1cc(C)c2cccnc2c1O (stereo unspecified)           false
34  Clc1ccc2oc3c(NCCCN4CCOCC4)c4ccccc4nc3c2c1           false
35  C#Cc1nc(C2=C(C)C(OC(C)=O)/C(=N/OC(C)=O)C2)cs1 (stereo unspecified)            true
36             CCOC(=O)c1sc(N)c(C(=O)OCC)c1C           false
37  N#Cc1ccc(C(=O)CSc2nc(Nc3ccc(S(N)(=O)=O)cc3)c3ccccc3n2)cc1           false
38  Cn1ccnc1C(=O)/C=C/c1ccc(NC(=O)Nc2ccccc2)cc1            true
39  Cc1nc(-c2cc3ccccc3oc2=O)ccc1C(=O)/C=C/c1ccc(Cl)c(Cl)c1           false
40  COc1ccc(C(=O)/C=C/c2ccc(Oc3nc(NCCO)nc(N4CCOCC4)n3)c(OC)c2)cc1            true
41  CS(=O)(=O)Nc1ccc(-c2nn(-c3ccc(S(C)(=O)=O)cc3)cc2/C=C/C(=O)c2ccc(NC(=O)CO[N+](=O)[O-])cc2)cc1           false

====

System: ACHN renal
ASSAY EXPLANATION: NCI-60 one-dose screen, 48 h (100 = growth as untreated, 0 = no growth, -100 = all killed)
ASSAY CONTEXT: 10 µM unless noted
The panel holds about 83,000 compounds, 20% with a hit somewhere; the sample as a whole holds those more often.
growth class ranges: range 1 (below 40%), range 2 (40% to below 90%), range 3 (90% or more)

> print(dat)
                                   molecule  category.label
1  CC(C)NC(=O)c1cc(-c2ccc(NC(=O)Nc3ccc(N4CCOCC4)c(C(F)(F)F)c3)cc2)nc2cccnc12         range 2
2  N=C1CC(=O)NN1C(=O)CSc1nc2sc3c(c2c(=O)n1-c1ccc(Cl)cc1)CCCC3         range 3
3  O=C1/C(=C/C2=Cc3ccccc3OC2)SC(=S)N1c1ccc(F)cc1         range 2
4  O=C(c1ccc(O)cc1)C1[C@H](c2ccc(Cl)cc2)[C@@H](c2ccccc2)NC12C(=O)Nc1ccc(Cl)cc12 (some centres undefined)         range 1
5  O=C(CN1C(=O)/C(=C/c2ccccc2)SC1=S)N1CCOCC1         range 2
6  N#Cc1ccc(C(=O)CSc2nc(Nc3ccc(S(N)(=O)=O)cc3)c3ccccc3n2)cc1         range 3
7  COc1ccc(NC(=O)c2sc3nc(-c4cnccn4)cc(-c4cccs4)c3c2N)cc1         range 2
8  COc1cccc(N2CCN(c3ncnc4c3[nH]c3ccc(F)cc34)C[C@@H]2C)c1         range 1

====

Each entry below lists one item and its recorded growth value.
Test system: CAKI-1 renal
ASSAY EXPLANATION: NCI-60 one-dose screen, 48 h (100 = growth as untreated, 0 = no growth, -100 = all killed)
ASSAY CONTEXT: 10 µM unless noted
Compounds without any hit were thinned out: in the full panel of roughly 83,000, 20% have a hit.
OBSERVABLE: growth (%)

> print(dat)
                                    molecule  tested.target  observable  reported.measurement
 1  C#C[C@]1(O)CC[C@H]2[C@@H]3CC=C4c5sc(-c6ccc(F)cn6)nc5CC[C@]4(C)[C@H]3CC[C@@]21C   CAKI-1 renal      growth                  20.6
 2      Clc1ccc(Cc2nnc3sc(-c4cccnc4)nn23)cc1   CAKI-1 renal      growth                    84
 3  Cn1ccnc1C(=O)/C=C/c1ccc(NC(=O)Nc2ccc(F)cc2)cc1   CAKI-1 renal      growth                  55.1
 4    COc1ccc(/C=N/Nc2ccnc3cc(Cl)ccc23)cc1Cl   CAKI-1 renal      growth                 -83.5
 5  Cc1cc(=O)oc2cc(OCCCOc3ccc(/C=C/C(=O)Nc4ccc(Cl)cc4)cc3)ccc12   CAKI-1 renal      growth                  59.6
 6  C#Cc1nc(C2=C(C)C(O)/C(=N/O)C2)cs1 (stereo not given)   CAKI-1 renal      growth                  76.5
 7  COc1ccc(N/N=C/c2c(-c3ccc(S(C)(=O)=O)cc3)nc3ccccn23)cc1   CAKI-1 renal      growth                  20.3
 8  O=C(CSc1nccc(=O)[nH]1)Nc1ccc(-c2nc3ccccc3[nH]2)cc1   CAKI-1 renal      growth                   112
 9  COc1cc(/C=C/C(=O)c2ccc(C)cc2)ccc1Oc1nc(NCCO)nc(N2CCOCC2)n1   CAKI-1 renal      growth                  50.4
10  Cn1cc(-c2cc(N)n3nc(-c4cn(C)c5ccc(Br)cc45)cc3n2)c2cc(Br)ccc21   CAKI-1 renal      growth                    79
11  O=C(CCN1C(=O)/C(=C/c2ccccc2F)SC1=S)N1CCOCC1   CAKI-1 renal      growth                  84.7
12  O=C(N/N=C/c1ccc([N+](=O)[O-])s1)c1[nH]c2ccc(Br)cc2c1-c1ccccc1   CAKI-1 renal      growth                  23.6
13  N#Cc1c(-c2ccc(Cl)cc2)nc(SCc2ccc(F)cc2)nc1N1CCNCC1   CAKI-1 renal      growth                  49.8
14  COc1cccc(-c2nn(-c3ccccc3)cc2-c2ccnc(N3CCN(C(=O)Nc4ccc(F)cc4)CC3)c2)c1   CAKI-1 renal      growth                  49.2
15    CN(C)CCCOc1c2ccccc2nc2c1oc1ccc(Cl)cc12   CAKI-1 renal      growth                 -6.35
16  COc1cccc(OC)c1-c1nnn(C)c1C(=S)N1CCN(c2ccc([N+](=O)[O-])cc2Cl)CC1   CAKI-1 renal      growth                  78.9
17  COC(=O)C1CCCN(S(=O)(=O)/N=C2\NC(=O)NC2=C(Cl)Cl)C1 (stereo not given)   CAKI-1 renal      growth                   102
18  O=c1[nH]c2ccccc2cc1CSc1ccccc1Nc1nccc(-c2ccc(C(F)(F)F)cc2)n1   CAKI-1 renal      growth                  64.4
19  Cc1c(NC(=O)CSc2nc3sc4c(c3c(=O)n2-c2ccc(Cl)cc2)CCCC4)c(=O)n(-c2ccccc2)n1C   CAKI-1 renal      growth                  65.1
20  Nc1cc(-c2c[nH]c3ccc(Cl)cc23)nc2cc(-c3c[nH]c4ccc(Cl)cc34)nn12   CAKI-1 renal      growth                  35.6
